Molecular target: Protein cereblon/Programmed cell death 1 ligand 1 (Homo sapiens) (UniProt Q9NZQ7+Q96SW2)
Sequence (Q96SW2 whole entry, looked up): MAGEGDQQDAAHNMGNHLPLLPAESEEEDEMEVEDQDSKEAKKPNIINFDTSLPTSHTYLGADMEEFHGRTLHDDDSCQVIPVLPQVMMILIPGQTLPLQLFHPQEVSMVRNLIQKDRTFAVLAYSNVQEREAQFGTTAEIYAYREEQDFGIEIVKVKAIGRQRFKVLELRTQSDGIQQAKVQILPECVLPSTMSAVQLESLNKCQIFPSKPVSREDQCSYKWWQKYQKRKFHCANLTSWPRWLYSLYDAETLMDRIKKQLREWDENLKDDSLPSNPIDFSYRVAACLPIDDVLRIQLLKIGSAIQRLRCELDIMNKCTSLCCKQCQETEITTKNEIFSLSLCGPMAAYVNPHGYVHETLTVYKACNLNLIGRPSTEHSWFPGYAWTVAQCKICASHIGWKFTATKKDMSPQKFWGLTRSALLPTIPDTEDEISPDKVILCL
Sequence (Q9NZQ7 whole entry, looked up): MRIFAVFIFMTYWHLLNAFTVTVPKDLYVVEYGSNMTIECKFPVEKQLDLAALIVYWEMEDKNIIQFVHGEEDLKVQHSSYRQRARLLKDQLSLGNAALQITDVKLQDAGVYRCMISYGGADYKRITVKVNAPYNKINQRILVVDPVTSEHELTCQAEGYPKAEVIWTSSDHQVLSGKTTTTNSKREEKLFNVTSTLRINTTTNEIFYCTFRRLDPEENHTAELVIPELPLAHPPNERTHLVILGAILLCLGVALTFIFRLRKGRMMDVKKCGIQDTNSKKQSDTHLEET
Assay: PROTAC activity at CRBN/PD-L1 in human HCC827 cells assessed as induction of PD-L1 protein degradation incubated for 24 hrs by Western blot analysis
Assay type: cell-based
Conditions: dose 0.25-10 µM

{"molecule": "N#Cc1cncc(COc2cc(OCc3cccc(-c4ccccc4F)c3Cl)ccc2CNCCCCCCCCNc2cccc3c2C(=O)N(C2CCC(=O)NC2=O)C3=O)c1 (stereo not drawn)", "tested-on": "Protein cereblon/Programmed cell death 1 ligand 1 (Homo sapiens) (UniProt Q9NZQ7+Q96SW2)", "Activity": "Dose-Dependent Effect"}
{"molecule": "N#Cc1cncc(COc2cc(OCc3cccc(-c4ccccc4F)c3Cl)ccc2CNCc2cn(CCCCCC(=O)Nc3cccc4c3CN(C3CCC(=O)NC3=O)C4=O)nn2)c1 (stereo not drawn)", "tested-on": "Protein cereblon/Programmed cell death 1 ligand 1 (Homo sapiens) (UniProt Q9NZQ7+Q96SW2)", "Activity": "Dose-Dependent Effect"}
{"molecule": "N#Cc1cncc(COc2cc(OCc3cccc(-c4ccccc4F)c3Cl)ccc2CNCCCCCNc2cccc3c2C(=O)N(C2CCC(=O)NC2=O)C3=O)c1 (stereo not drawn)", "tested-on": "Protein cereblon/Programmed cell death 1 ligand 1 (Homo sapiens) (UniProt Q9NZQ7+Q96SW2)", "Activity": "Dose-Dependent Effect"}

====

Molecular target: Protein cereblon/Programmed cell death 1 ligand 1 (Homo sapiens) (UniProt Q9NZQ7+Q96SW2)
Test: PROTAC activity at CRBN/PD-L1 in human HCC827 cells assessed as induction of PD-L1 protein degradation incubated for 24 hrs by Western blot analysis
Format: cell-based
Settings: dose 0.25-10 µM

{"compound": "N#Cc1cncc(COc2cc(OCC3C=CC=C(c4ccccc4F)C3Cl)ccc2CNCCOCCOCCOCCOCCOCCOCCC(=O)Nc2cccc3c2CN(C2CCC(=O)NC2=O)C3=O)c1 (stereo not drawn)", "tested-on": "Protein cereblon/Programmed cell death 1 ligand 1 (Homo sapiens) (UniProt Q9NZQ7+Q96SW2)", "Activity": "Dose-Dependent Effect"}
{"compound": "N#Cc1cncc(COc2cc(OCc3cccc(-c4ccccc4F)c3Cl)ccc2CNCCOCCOCCNc2cccc3c2C(=O)N(C2CCC(=O)NC2=O)C3=O)c1 (stereo not drawn)", "tested-on": "Protein cereblon/Programmed cell death 1 ligand 1 (Homo sapiens) (UniProt Q9NZQ7+Q96SW2)", "Activity": "Dose-Dependent Effect"}
{"compound": "N#Cc1cncc(COc2cc(OCc3cccc(-c4ccccc4F)c3Cl)ccc2CNCCOCCOCCOCCNc2cccc3c2C(=O)N(C2CCC(=O)NC2=O)C3=O)c1 (stereo not drawn)", "tested-on": "Protein cereblon/Programmed cell death 1 ligand 1 (Homo sapiens) (UniProt Q9NZQ7+Q96SW2)", "Activity": "Dose-Dependent Effect"}

====

Target: Programmed cell death protein 1/Programmed cell death 1 ligand 1 (Homo sapiens)
Sequence (Q15116 whole entry): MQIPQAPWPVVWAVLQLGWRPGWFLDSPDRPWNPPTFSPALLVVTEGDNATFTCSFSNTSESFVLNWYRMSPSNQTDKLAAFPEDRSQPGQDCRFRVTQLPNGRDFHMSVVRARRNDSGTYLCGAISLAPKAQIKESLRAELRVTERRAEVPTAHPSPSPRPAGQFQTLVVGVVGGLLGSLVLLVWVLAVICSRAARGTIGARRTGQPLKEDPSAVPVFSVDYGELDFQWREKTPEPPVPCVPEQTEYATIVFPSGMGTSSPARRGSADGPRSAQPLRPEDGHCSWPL
Sequence (Q9NZQ7 whole entry): as the sequence (Q9NZQ7 whole entry, looked up) above
Assay: Inhibition of human PD-1/PD-L1 interaction by HTRF assay
For each entry below, report its pIC50 value.
Give bare numbers, as −log10 of the molar value.

Consider the following items and state reported pIC50 for each.
1. N#Cc1cncc(COc2cc(OCc3cccc(-c4ccccc4F)c3Cl)ccc2CNCCOCCOCCNc2cccc3c2C(=O)N(C2CCC(=O)NC2=O)C3=O)c1 (configuration not stated)
2. N#Cc1cncc(COc2cc(OCc3cccc(-c4ccccc4F)c3Cl)ccc2CNCCOCCOCCOCCNc2cccc3c2C(=O)N(C2CCC(=O)NC2=O)C3=O)c1 (configuration not stated)

Marked response:
6.70
6.66
